- Test system: RAW-Dual (murine macrophage reporter line)
- PROTOCOL_DESCRIPTION: NF-kB reporter (SEAP) activity fold change vs agonist alone; higher = enhanced NF-kB activity
- TEST_CONTEXT: modulator concentration 10 µM; agonist: MPLA […]
EXPERIMENTAL_READOUT: NF-kB reporter

{"COMPOUND": "CCOc1ccc(S(=O)(=O)NCCn2nc(C3CC3)ccc2=O)cc1C", "MEASUREMENT_TARGET": "RAW-Dual (murine macrophage reporter line)", "EXPERIMENTAL_READOUT": "NF-kB reporter", "OBSERVED": 1.04}
{"COMPOUND": "CCN(CC)c1nc(-c2ccccc2Cl)c2cc(Br)ccc2n1", "MEASUREMENT_TARGET": "RAW-Dual (murine macrophage reporter line)", "EXPERIMENTAL_READOUT": "NF-kB reporter", "OBSERVED": 1.02}
{"COMPOUND": "O=C(CN1CCN(c2ccccc2F)C1=O)N1CCCC(Oc2ccncn2)C1 (stereo unspecified)", "MEASUREMENT_TARGET": "RAW-Dual (murine macrophage reporter line)", "EXPERIMENTAL_READOUT": "NF-kB reporter", "OBSERVED": 0.992}
{"COMPOUND": "O=C(Nc1ccc(F)cc1)c1ccco1", "MEASUREMENT_TARGET": "RAW-Dual (murine macrophage reporter line)", "EXPERIMENTAL_READOUT": "NF-kB reporter", "OBSERVED": 1}
{"COMPOUND": "Nc1nc(=O)[nH]cc1F", "MEASUREMENT_TARGET": "RAW-Dual (murine macrophage reporter line)", "EXPERIMENTAL_READOUT": "NF-kB reporter", "OBSERVED": 1.08}
{"COMPOUND": "O=C(c1ccc(Cl)cc1)c1ccc(N2CCOCC2)c([N+](=O)[O-])c1", "MEASUREMENT_TARGET": "RAW-Dual (murine macrophage reporter line)", "EXPERIMENTAL_READOUT": "NF-kB reporter", "OBSERVED": 0.735}
{"COMPOUND": "Cc1ccc(C(C)C)c(Oc2ccccc2NC(=O)c2cc(I)cc(I)c2O)c1", "MEASUREMENT_TARGET": "RAW-Dual (murine macrophage reporter line)", "EXPERIMENTAL_READOUT": "NF-kB reporter", "OBSERVED": 0.924}
{"COMPOUND": "COC(=O)Nc1nc2ccc(S(=O)c3ccccc3)cc2[nH]1 (stereo unspecified)", "MEASUREMENT_TARGET": "RAW-Dual (murine macrophage reporter line)", "EXPERIMENTAL_READOUT": "NF-kB reporter", "OBSERVED": 1.12}
{"COMPOUND": "CC1CCN(C2=NC(=O)C(=Cc3cccc4ccccc34)S2)CC1", "MEASUREMENT_TARGET": "RAW-Dual (murine macrophage reporter line)", "EXPERIMENTAL_READOUT": "NF-kB reporter", "OBSERVED": 0.954}
{"COMPOUND": "COc1ccccc1C(=O)Nc1ccc(Nc2ccc(-n3cccn3)nn2)cc1", "MEASUREMENT_TARGET": "RAW-Dual (murine macrophage reporter line)", "EXPERIMENTAL_READOUT": "NF-kB reporter", "OBSERVED": 1.91}
{"COMPOUND": "COc1cccc(S(=O)(=O)NCc2sc(-c3ccccc3)nc2C)c1", "MEASUREMENT_TARGET": "RAW-Dual (murine macrophage reporter line)", "EXPERIMENTAL_READOUT": "NF-kB reporter", "OBSERVED": 0.901}
{"COMPOUND": "CC(C)CC(C(=O)Nc1cccc(O)c1)N1C(=O)c2ccccc2C1=O (stereo unspecified)", "MEASUREMENT_TARGET": "RAW-Dual (murine macrophage reporter line)", "EXPERIMENTAL_READOUT": "NF-kB reporter", "OBSERVED": 1.16}
{"COMPOUND": "C#CCN[C@@H]1CCc2ccccc21", "MEASUREMENT_TARGET": "RAW-Dual (murine macrophage reporter line)", "EXPERIMENTAL_READOUT": "NF-kB reporter", "OBSERVED": 0.978}
{"COMPOUND": "O=C1CNC(=O)N1CC(O)Cn1c2ccc(Br)cc2c2cc(Br)ccc21 (stereo unspecified)", "MEASUREMENT_TARGET": "RAW-Dual (murine macrophage reporter line)", "EXPERIMENTAL_READOUT": "NF-kB reporter", "OBSERVED": 0.908}
{"COMPOUND": "COc1ccc(N2CC(NC(=O)Nc3cccc(Cl)c3C)CC2=O)cc1OC (stereo unspecified)", "MEASUREMENT_TARGET": "RAW-Dual (murine macrophage reporter line)", "EXPERIMENTAL_READOUT": "NF-kB reporter", "OBSERVED": 1.01}
{"COMPOUND": "COC(=O)C1=CN(CC2CCCO2)C=C(C(=O)OC)C1c1ccc(OC)cc1 (stereo unspecified)", "MEASUREMENT_TARGET": "RAW-Dual (murine macrophage reporter line)", "EXPERIMENTAL_READOUT": "NF-kB reporter", "OBSERVED": 1.09}
{"COMPOUND": "CC(C)(C)C1(O)CC(C(F)(F)F)=NN1C(=O)c1ccc([N+](=O)[O-])cc1 (stereo unspecified)", "MEASUREMENT_TARGET": "RAW-Dual (murine macrophage reporter line)", "EXPERIMENTAL_READOUT": "NF-kB reporter", "OBSERVED": 1.01}
{"COMPOUND": "CC(C)(C)C1(O)CC(C(F)(F)F)=NN1C(=O)c1cccc([N+](=O)[O-])c1 (stereo unspecified)", "MEASUREMENT_TARGET": "RAW-Dual (murine macrophage reporter line)", "EXPERIMENTAL_READOUT": "NF-kB reporter", "OBSERVED": 0.873}
{"COMPOUND": "Cc1cc(C)c(NC(=O)C2C3CCC4C(CCC32)C4(Cl)Cl)c(C)c1 (stereo unspecified)", "MEASUREMENT_TARGET": "RAW-Dual (murine macrophage reporter line)", "EXPERIMENTAL_READOUT": "NF-kB reporter", "OBSERVED": 1.02}
{"COMPOUND": "CC(C)c1ccc2oc3nc(N)c(C(=O)O)cc3c(=O)c2c1", "MEASUREMENT_TARGET": "RAW-Dual (murine macrophage reporter line)", "EXPERIMENTAL_READOUT": "NF-kB reporter", "OBSERVED": 0.91}
{"COMPOUND": "CC1CCc2nnc(OCC3CCCN3C)cc2C1 (stereo unspecified)", "MEASUREMENT_TARGET": "RAW-Dual (murine macrophage reporter line)", "EXPERIMENTAL_READOUT": "NF-kB reporter", "OBSERVED": 0.99}
{"COMPOUND": "Cc1ccc(CCNc2ccccc2C)cn1", "MEASUREMENT_TARGET": "RAW-Dual (murine macrophage reporter line)", "EXPERIMENTAL_READOUT": "NF-kB reporter", "OBSERVED": 1.2}
{"COMPOUND": "CC(=O)Oc1ccc2c(c1)c(C(C)=O)c(C)n2C", "MEASUREMENT_TARGET": "RAW-Dual (murine macrophage reporter line)", "EXPERIMENTAL_READOUT": "NF-kB reporter", "OBSERVED": 0.963}
{"COMPOUND": "COc1ccc(NC(=O)c2cn(-c3cc(N4CCCCC4)ncn3)cn2)cc1F", "MEASUREMENT_TARGET": "RAW-Dual (murine macrophage reporter line)", "EXPERIMENTAL_READOUT": "NF-kB reporter", "OBSERVED": 1.22}
{"COMPOUND": "Cc1ccccc1C(=O)N1CC(S(=O)(=O)CC(C)C)C1", "MEASUREMENT_TARGET": "RAW-Dual (murine macrophage reporter line)", "EXPERIMENTAL_READOUT": "NF-kB reporter", "OBSERVED": 0.854}
{"COMPOUND": "CN1C(=O)C(=NNC(=O)c2ccccc2Cl)c2cc(Br)cc(Br)c21", "MEASUREMENT_TARGET": "RAW-Dual (murine macrophage reporter line)", "EXPERIMENTAL_READOUT": "NF-kB reporter", "OBSERVED": 1.03}
{"COMPOUND": "Cc1cn(C2C=CC(CO)O2)c(=O)[nH]c1=O (stereo unspecified)", "MEASUREMENT_TARGET": "RAW-Dual (murine macrophage reporter line)", "EXPERIMENTAL_READOUT": "NF-kB reporter", "OBSERVED": 0.981}
{"COMPOUND": "Cc1occc1C(=O)Nc1ccc(F)c(F)c1", "MEASUREMENT_TARGET": "RAW-Dual (murine macrophage reporter line)", "EXPERIMENTAL_READOUT": "NF-kB reporter", "OBSERVED": 1.11}
{"COMPOUND": "OCCN(CCO)CC(O)Cn1c2ccc(Br)cc2c2cc(Br)ccc21 (stereo unspecified)", "MEASUREMENT_TARGET": "RAW-Dual (murine macrophage reporter line)", "EXPERIMENTAL_READOUT": "NF-kB reporter", "OBSERVED": 0.617}
{"COMPOUND": "COc1ccc(Cl)c(Nc2nc3ccccc3nc2NS(=O)(=O)c2cccc(NC(=O)C(C)(C)N)c2)c1", "MEASUREMENT_TARGET": "RAW-Dual (murine macrophage reporter line)", "EXPERIMENTAL_READOUT": "NF-kB reporter", "OBSERVED": 1.11}
{"COMPOUND": "COc1ccc(OC)c(CN2CCCC(O)C2)c1 (stereo unspecified)", "MEASUREMENT_TARGET": "RAW-Dual (murine macrophage reporter line)", "EXPERIMENTAL_READOUT": "NF-kB reporter", "OBSERVED": 0.942}
{"COMPOUND": "COc1ccc(-c2[nH]c(-c3cccc(OC)c3)nc2SCC(=O)NC2CCCC2)cc1", "MEASUREMENT_TARGET": "RAW-Dual (murine macrophage reporter line)", "EXPERIMENTAL_READOUT": "NF-kB reporter", "OBSERVED": 1.91}
{"COMPOUND": "CCCc1cc(=O)[nH]c(=S)[nH]1", "MEASUREMENT_TARGET": "RAW-Dual (murine macrophage reporter line)", "EXPERIMENTAL_READOUT": "NF-kB reporter", "OBSERVED": 1.3}
{"COMPOUND": "COc1cc(C=Nc2ccc3oc(-c4ccc(C(C)(C)C)cc4)nc3c2)ccc1OC(=O)c1ccc(Cl)cc1Cl", "MEASUREMENT_TARGET": "RAW-Dual (murine macrophage reporter line)", "EXPERIMENTAL_READOUT": "NF-kB reporter", "OBSERVED": 0.936}
{"COMPOUND": "Cc1cccc(C(=O)NC2CCC(F)(F)CC2)c1", "MEASUREMENT_TARGET": "RAW-Dual (murine macrophage reporter line)", "EXPERIMENTAL_READOUT": "NF-kB reporter", "OBSERVED": 1.03}
{"COMPOUND": "Cc1ccc(C(=O)C(C)CN2CCCCC2)cc1.Cl (stereo unspecified)", "MEASUREMENT_TARGET": "RAW-Dual (murine macrophage reporter line)", "EXPERIMENTAL_READOUT": "NF-kB reporter", "OBSERVED": 0.908}
{"COMPOUND": "CCCCC1=NC2(CCCC2)C(=O)N1Cc1ccc(-c2ccccc2-c2nn[nH]n2)cc1", "MEASUREMENT_TARGET": "RAW-Dual (murine macrophage reporter line)", "EXPERIMENTAL_READOUT": "NF-kB reporter", "OBSERVED": 0.978}
{"COMPOUND": "COC(=O)[C@]12CCC(C)(C)C[C@H]1[C@H]1C(=O)C=C3[C@@]4(C)C=C(C#N)C(=O)C(C)(C)[C@@H]4CC[C@@]3(C)[C@]1(C)CC2", "MEASUREMENT_TARGET": "RAW-Dual (murine macrophage reporter line)", "EXPERIMENTAL_READOUT": "NF-kB reporter", "OBSERVED": 0.937}
{"COMPOUND": "CCCc1nc2ccccc2c(NC(=O)CN2CCOCC2)c1CC.O=C(O)C(=O)O", "MEASUREMENT_TARGET": "RAW-Dual (murine macrophage reporter line)", "EXPERIMENTAL_READOUT": "NF-kB reporter", "OBSERVED": 1.01}
{"COMPOUND": "Cc1sccc1-c1csc(Nc2cccnc2)n1.Cl", "MEASUREMENT_TARGET": "RAW-Dual (murine macrophage reporter line)", "EXPERIMENTAL_READOUT": "NF-kB reporter", "OBSERVED": 1.16}
{"COMPOUND": "NC(=O)c1ncn(C2OC(CO)C(O)C2O)c1O (stereo unspecified)", "MEASUREMENT_TARGET": "RAW-Dual (murine macrophage reporter line)", "EXPERIMENTAL_READOUT": "NF-kB reporter", "OBSERVED": 0.917}
{"COMPOUND": "CCOC(=O)c1c(C)nn(C2CCCCC2)c1N", "MEASUREMENT_TARGET": "RAW-Dual (murine macrophage reporter line)", "EXPERIMENTAL_READOUT": "NF-kB reporter", "OBSERVED": 1.09}
{"COMPOUND": "Oc1c2c(nc3cc(-c4ccc(Cl)cc4)nn13)CCS2", "MEASUREMENT_TARGET": "RAW-Dual (murine macrophage reporter line)", "EXPERIMENTAL_READOUT": "NF-kB reporter", "OBSERVED": 0.973}
{"COMPOUND": "O=c1ncnc2[nH][nH]cc1-2", "MEASUREMENT_TARGET": "RAW-Dual (murine macrophage reporter line)", "EXPERIMENTAL_READOUT": "NF-kB reporter", "OBSERVED": 1.13}
{"COMPOUND": "CCc1sc2sncc2c1Br", "MEASUREMENT_TARGET": "RAW-Dual (murine macrophage reporter line)", "EXPERIMENTAL_READOUT": "NF-kB reporter", "OBSERVED": 1.17}
{"COMPOUND": "Cc1cc(OCCCOc2cccc3cccnc23)ccc1Cl", "MEASUREMENT_TARGET": "RAW-Dual (murine macrophage reporter line)", "EXPERIMENTAL_READOUT": "NF-kB reporter", "OBSERVED": 0.864}
